# targetOrSystem: ErbB4 on neonatal rat cardiomyocytes (rat) (UniProt Q62956)
# Sequence (Q62956 26-1308): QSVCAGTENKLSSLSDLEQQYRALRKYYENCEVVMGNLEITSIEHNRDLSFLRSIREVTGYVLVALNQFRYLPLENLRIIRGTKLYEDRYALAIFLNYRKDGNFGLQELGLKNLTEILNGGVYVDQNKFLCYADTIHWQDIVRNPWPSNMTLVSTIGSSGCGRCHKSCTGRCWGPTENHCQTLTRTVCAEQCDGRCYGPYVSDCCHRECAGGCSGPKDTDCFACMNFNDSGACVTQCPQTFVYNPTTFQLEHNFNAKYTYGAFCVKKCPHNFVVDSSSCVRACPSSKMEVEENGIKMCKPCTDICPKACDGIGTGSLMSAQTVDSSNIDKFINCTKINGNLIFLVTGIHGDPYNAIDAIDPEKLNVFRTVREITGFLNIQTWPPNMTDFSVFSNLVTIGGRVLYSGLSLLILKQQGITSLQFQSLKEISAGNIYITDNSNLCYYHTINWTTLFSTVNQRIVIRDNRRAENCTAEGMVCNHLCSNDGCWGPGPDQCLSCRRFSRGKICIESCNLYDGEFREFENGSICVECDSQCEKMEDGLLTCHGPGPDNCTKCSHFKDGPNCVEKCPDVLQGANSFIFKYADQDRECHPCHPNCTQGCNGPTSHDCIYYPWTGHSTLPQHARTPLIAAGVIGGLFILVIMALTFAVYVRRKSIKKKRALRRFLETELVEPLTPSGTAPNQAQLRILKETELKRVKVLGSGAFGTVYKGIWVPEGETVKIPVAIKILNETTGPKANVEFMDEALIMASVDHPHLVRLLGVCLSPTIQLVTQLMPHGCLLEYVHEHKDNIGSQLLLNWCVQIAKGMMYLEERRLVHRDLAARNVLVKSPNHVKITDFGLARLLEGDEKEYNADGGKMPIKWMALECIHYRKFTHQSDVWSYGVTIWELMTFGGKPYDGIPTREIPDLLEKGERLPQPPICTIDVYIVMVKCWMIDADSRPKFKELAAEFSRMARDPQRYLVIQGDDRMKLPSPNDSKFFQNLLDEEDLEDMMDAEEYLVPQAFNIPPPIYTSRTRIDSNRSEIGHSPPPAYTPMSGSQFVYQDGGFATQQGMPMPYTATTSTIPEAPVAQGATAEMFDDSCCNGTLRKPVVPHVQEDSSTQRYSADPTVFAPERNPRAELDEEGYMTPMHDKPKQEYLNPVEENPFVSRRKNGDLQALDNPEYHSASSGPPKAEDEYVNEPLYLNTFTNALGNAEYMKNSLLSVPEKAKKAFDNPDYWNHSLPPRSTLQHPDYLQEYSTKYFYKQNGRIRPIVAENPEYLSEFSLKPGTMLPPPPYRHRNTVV
# testProtocol: cell-based or functional assay
endpointLabel: Cardiomyocyte (CM) (ErbB4) Avg EC50 (nM)

binder	endpointValue
huNRG1(S177-Q237)(2G3)::GG::huFcSEFL2 (Pb) (Fc fusion) SHLVKCGERQKSFCVNGGECYMVEDLSIPSRYLCKCPNEFTGDRCQKVFMASFYKAEELYQGGDKTHTCPPCPAPELLGGPSVFLFPPKPKDTLMISRTPEVTCVVVDVSHEDPEVKFNWYVDGVEVHNAKTKPCEEQYGSTYRCVSVLTVLHQDWLNGKEYKCKVSNKALPAPIEKTISKAKGQPREPQVYTLPPSREEMTKNQVSLTCLVKGFYPSDIAVEWESNGQPENNYKTTPPVLDSDGSFFLYSKLTVDKSRWQQGNVFSCSVMHEALHNHYTQKSLSLSPGK	0.208
